Cited source for all entries: paper PMC3151534

# assay.comment: in vitro
# condition.details: human, Caco-2
attribute.measured: recovery at 90 min, 10 μM

1. CC(C)C[C@H](NC(=O)[C@H](Cc1ccc(OP(=O)(O)O)cc1)NC(=O)c1ccc(C#N)cc1)C(=O)Nc1cc(C(=O)NCc2ccccc2)cc(-c2ccc(C(N)=O)cc2)c1 [Inhibitor 14ba]    1 to 2%

Data request: For the compound CC(C)C[C@H](NC(=O)[C@H](Cc1ccc(OP(=O)(O)O)cc1)NC(=O)c1ccc(C#N)cc1)C(=O)Nc1ccc(C(=O)NCc2ccccc2)c(-c2ccc(C(N)=O)cc2)c1 [Inhibitor 14aa] , what recovery at 90 min, 10 μM is on record?
Data returned: 1 to 2%
